B1: TPR t1 (parent)
chain: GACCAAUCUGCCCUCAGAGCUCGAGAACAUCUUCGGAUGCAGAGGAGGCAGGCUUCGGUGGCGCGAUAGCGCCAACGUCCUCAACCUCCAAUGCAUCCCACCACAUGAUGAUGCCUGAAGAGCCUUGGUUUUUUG

Variants of: B1
procedure.details: polymerase ribozyme fitness, log enrichment relative to wild type (log ratio); higher = more active; in vitro selection for triplet polymerase activity
Threshold check on polymerase ribozyme fitness (log ratio): at or above -4 gives YES, strictly below gives NO.

Consider the worked cases shown below.
sequence.code | label
GACCAAUCUGCCCUCAGAGCUCGAGAACAUCUUCGGAUGCAGGGGAGACAGGCUUCGGUGGCACGAUAGCGCCAACGCCCUCAACCUCCAAUGCAUCCCACCACAUGAUGACGCCUGAAGAGCCUUUGUUUUUUG [A43G G48A G63A U78C U112C G127U] | YES
GACCAAUCUGCCCUCAGAGCUCGAGAACAUCUUCGGAUUCAGAGGAGGCAGGCGUCGGUGGCGCGAUAGCGCGAACGUCCUCAACCUCCAAUGCAUCCCACCACAUGAUGAUGCCUGAAGAGCCUUGGUUUUUUG [G39U U54G C73G] | NO
GACCAAUCUGCCCUCAGAGAUCGAGAACAUCUUCGGAUGCAGAGGAGGCAGGCUUCGGUGGCGCGAUAGCGCCAACGUCCUCAACCGCCAAUGCAUCCCGCAACAUGAUGAUGCCUGAGGAGCCUUGGUUUUUUG [C20A U87G A100G C102A A119G] | NO
GACCAAUCUGCCCUCAGAGCUCGAGAACGUCUUCGGAUGCAGAGGAGGCUGGCUUCGGUGGCGCGAUAGCGCAAACGUCCUCAACCUCCAAUGCAUCCCACCACAUGAUGAUGCCUGAAGAGCCUUGGUUUUUUG [A29G A50U C73A] | YES
GACCAAUCAGCCCUCAGAGCUCGAGAACAUCUUCGGAUGCAGAGGAGGCCGGCUUCGGUGGCGCGAUAGCGCCAACGUCCUCAACCUCCAAUGCAUCCCACCACAUGAUGAUGCCUGAAGAGCCUUGGUUUUUUG [U9A A50C] | YES

query: Quick check, polymerase ribozyme fitness (log ratio) >= -4? GACCAAUCUGCACUCAGAGCUCGAGAACAUCUUCGGAUGCCGAGGAGGCAGGCUUCGGUGGCGCGAUAGCGUCAACGUCCUCAACCUCCAAGGCAUCCCACCACAUGAUGGUGCCUGAAGAGCCUUGGUUUUUUG [C12A A41C C72U U92G A111G]
result: YES

query: Quick check, polymerase ribozyme fitness (log ratio) >= -4? GACCAAUCUGCCCUCAGAGCUCGAGAACAUCUUCGGAUGCAGAGGAGGCAGGCUUCGGUGGCGGGAUAGCGCCAACGUGCUCAACCUCCAAUGCAUCCCACCACAUGAUGAUGCCUGAAAAGCCUUGGUUUUUUC [C64G C79G G120A G135C]
result: NO

Cited source: the RNAGym collection of RNA variant scans (doi:10.1073/pnas.2313332121)
